Target: T1, human C1s (human, UniProt P09871 16-688)
T1 construct: also called hC1s; serum-derived human C1s (CompTech)
T1 sequence: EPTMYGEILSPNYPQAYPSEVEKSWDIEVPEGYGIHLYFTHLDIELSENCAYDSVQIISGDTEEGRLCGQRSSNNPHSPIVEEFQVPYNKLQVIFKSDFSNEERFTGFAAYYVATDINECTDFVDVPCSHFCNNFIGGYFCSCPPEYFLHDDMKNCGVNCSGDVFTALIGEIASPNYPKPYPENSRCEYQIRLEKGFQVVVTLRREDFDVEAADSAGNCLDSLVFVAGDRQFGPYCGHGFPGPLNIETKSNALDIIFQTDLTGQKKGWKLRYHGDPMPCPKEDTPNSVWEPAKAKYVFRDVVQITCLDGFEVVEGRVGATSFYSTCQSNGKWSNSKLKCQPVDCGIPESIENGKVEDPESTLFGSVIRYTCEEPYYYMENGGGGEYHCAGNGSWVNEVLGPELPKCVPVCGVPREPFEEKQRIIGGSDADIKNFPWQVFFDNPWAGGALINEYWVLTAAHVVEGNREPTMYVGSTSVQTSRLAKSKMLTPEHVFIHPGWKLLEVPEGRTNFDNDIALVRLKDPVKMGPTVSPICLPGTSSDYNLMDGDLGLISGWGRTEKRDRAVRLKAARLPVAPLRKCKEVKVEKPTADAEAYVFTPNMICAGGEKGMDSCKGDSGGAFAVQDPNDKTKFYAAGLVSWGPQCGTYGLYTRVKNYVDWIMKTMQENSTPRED
Assay: SPR, Ab captured; pH 5.8, 1.2 mM Ca
The entries below come with measured koff values attached.
Give your result in s⁻¹ as a bare value.

{"binder": "C1_IPN009VH2-SG4GK/IPN93L0031-SK1 (antibody, human IgG4 S228P, kappa, name in Kabat numbering, V domains shown, also called IPN009VH2/IPN93L0031) VH: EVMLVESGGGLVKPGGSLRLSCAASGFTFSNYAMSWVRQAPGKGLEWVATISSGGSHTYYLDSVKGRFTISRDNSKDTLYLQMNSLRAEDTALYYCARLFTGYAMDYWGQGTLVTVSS VL: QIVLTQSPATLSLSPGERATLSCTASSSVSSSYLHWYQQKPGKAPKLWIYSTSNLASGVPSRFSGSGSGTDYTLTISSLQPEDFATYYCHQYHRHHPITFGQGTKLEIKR", "koff [s⁻¹]": 0.0127}

[ask] Tell us which koff value is on record for C1_IPN92H0038-SG4GK/IPN009VK3-SK1 (antibody, human IgG4 S228P, kappa, name in Kabat numbering, V domains shown, also called IPN92H0038/IPN009VK3) VH: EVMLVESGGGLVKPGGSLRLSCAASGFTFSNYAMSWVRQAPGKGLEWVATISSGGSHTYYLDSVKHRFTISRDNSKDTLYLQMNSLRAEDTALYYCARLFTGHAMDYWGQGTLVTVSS VL: QIVLTQSPATLSLSPGERATLSCTASSSVSSSYLHWYQQKPGKAPKLWIYSTSNLASGVPSRFSGSGSGTDYTLTISSLQPEDFATYYCHQYYRLPPITFGQGTKLEIKR
[reply] 0.000463

[ask] Specify reported koff for the binder shown: C1_IPN92H0026-SG4GK/IPN93L0031-SK1 (antibody, human IgG4 S228P, kappa, name in Kabat numbering, V domains shown, also called IPN92H0026/IPN93L0031) VH: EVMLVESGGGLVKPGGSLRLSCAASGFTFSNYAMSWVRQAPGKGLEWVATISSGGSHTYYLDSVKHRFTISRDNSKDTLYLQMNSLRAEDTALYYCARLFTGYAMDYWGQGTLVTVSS VL: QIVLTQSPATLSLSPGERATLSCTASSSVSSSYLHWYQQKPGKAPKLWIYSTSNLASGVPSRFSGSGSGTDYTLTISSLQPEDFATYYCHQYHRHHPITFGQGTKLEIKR
[reply] 0.0178

Values from patent US20210032365A1
